# Target desc: hGPR119 (Homo sapiens)
# Construct: expressed in transfected cells; host or cells: CHO cells (CHO-hGPR119)
# Sequence (Q8TDV5 whole entry): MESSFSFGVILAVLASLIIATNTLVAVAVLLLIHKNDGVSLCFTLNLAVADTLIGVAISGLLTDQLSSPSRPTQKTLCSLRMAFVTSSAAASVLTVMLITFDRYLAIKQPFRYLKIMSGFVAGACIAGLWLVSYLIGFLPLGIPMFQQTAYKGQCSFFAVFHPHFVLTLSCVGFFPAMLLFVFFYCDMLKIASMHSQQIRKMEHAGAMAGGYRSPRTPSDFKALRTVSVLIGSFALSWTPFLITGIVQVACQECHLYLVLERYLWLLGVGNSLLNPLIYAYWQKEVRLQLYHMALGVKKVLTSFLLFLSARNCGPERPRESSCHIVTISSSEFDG
# Test protocol: In vitro cyclic AMP assay (Cisbio HTRF) in CHO-hGPR119 cells
# Format: cell-based
# Measurement parameters: 1 h, cAMP, 1 μM, 60 min, read-out: Induction (% induction at 1 μM)
Outcome measure: activation at 1 µM

>>> data_value("CCOC(=O)N1CCC([C@H](C)Oc2nn3cc(-c4ccc(S(C)(=O)=O)cc4F)nc3s2)CC1 [Compound 1113]")
"68%"
>>> data_value("C[C@H](Oc1nn2cc(-c3ccc(S(C)(=O)=O)cc3)nc2s1)C1CCN(c2ncc(Cl)cn2)CC1 [Compound 1083]")
"77%"
>>> data_value("CC(C)c1noc(N2CCC(COc3nc(-c4ccc(S(C)(=O)=O)cc4)ns3)CC2)n1 [Compound 1117]")
"2%"
>>> data_value("CC(C)c1noc(N2CCC(C(C)Oc3nn4cc(-c5ccc(S(C)(=O)=O)nc5)nc4s3)CC2)n1 (stereo not shown) [Compound 1055]")
"76%"
>>> data_value("CC(C)c1noc(N2CCC(COc3nn4cc(-c5ccc(C#N)cc5)nc4s3)CC2)n1 [Compound 1053]")
"49%"
>>> data_value("CC(C)c1noc(C2CCN(c3nn4cc(-c5ccc(C#N)cc5)nc4s3)CC2)n1 [Compound 1046]")
"26%"
>>> data_value("CC(C)c1noc(N2CCC([C@@H](C)Oc3nn4cc(-c5cnc(Cl)cn5)nc4s3)CC2)n1 [Compound 1087]")
"75%"
